test system: OCI-AML2; test: cell viability relative to vehicle control; higher = less cytotoxic; settings: 10 µM; SRSF2 genotype: P95H/wt;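 also: after 48 h exposure read by CellTiter-Glo luminescence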
Counter-ions that a name gives are not always drawn.
Mark true (1) only for cell viability values smaller than 80%; exact matches and larger values are false (0).

Would you please look over these solved cases?
Request: Hello, I'm reviewing records and need to know if cell viability of O=P(O)(O)Oc1cccc2ccccc12 [1-Naphthyl phosphate potassium salt] is below 80%. Could you check?
Result: false (0)

Request: Cool, now COC(=O)c1ccccc1O [Methyl salicylate]
Result: false (0)

Request: Cool, now "O=C(/C=C/c1ccc(O[C@@H]2O[C@H](CO)[C@@H](O)[C@H](O)[C@H]2O)cc1)c1ccc(O)cc1O"
Result: false (0)

More entries:
Request: Hello, I'm reviewing records and need to know if cell viability of "Nc1ccc(/C=C/C(=O)NCc2cc3cc(-c4ccc(C(=O)N5CCC(F)(F)CC5)cc4)cc(-c4ccc(F)cc4)c3o2)cn1" is below 80%. Could you check?
Result: true (1)

Request: Cool, now "CCC(=O)Nc1cccc(Oc2nc(Nc3ccc(N4CCN(C)CC4)cc3OC)ncc2Cl)c1"
Result: true (1)

Request: Cool, now "C[C@H]1CNCCCN1S(=O)(=O)c1cccc2cncc(F)c12"
Result: true (1)

Request: Cool, now "c1cn2cc(-c3ccc4cn[nH]c4c3)nc(Nc3ccc(N4CCOCC4)cc3)c2n1"
Result: false (0)

Request: Cool, now CCCCN1CCCCC1C(=O)Nc1c(C)cccc1C (configuration not stated) [Bupivacaine hydrochloride (Marcain)]
Result: false (0)

Request: Cool, now O=C(Nc1cccc(C2=NCCN2)c1)Nc1cccc(C2=NCCN2)c1 [Imidocarb dipropionate]
Result: false (0)

Request: Cool, now "Nc1nccc(Oc2ccc(NC(=O)c3c[nH]cc(-c4ccc(F)cc4)c3=O)cc2F)c1Cl"
Result: true (1)

Request: Cool, now "CCCCCCCCCCCC1=C(O)C(=O)C=C(O)C1=O"
Result: false (0)

Request: Cool, now "CN1CCN(CCCNc2ncc(Cl)c(-c3cc4c(C(=O)NC5CC5)cccc4s3)n2)CC1"
Result: true (1)

Request: Cool, now Cc1cccc(Nc2ccncc2S(=O)(=O)NC(=O)NC(C)C)c1 [Torsemide (Demadex)]
Result: false (0)

Request: Cool, now O=C1CC(c2ccc(O)cc2)Oc2cc(O)ccc21 (configuration not stated)
Result: false (0)

Request: Cool, now "COc1ccc(/C=C/c2cc(O)cc(O[C@@H]3O[C@H](CO)[C@@H](O)[C@H](O)[C@H]3O)c2)cc1O"
Result: false (0)

Request: Cool, now "O=C(CCc1ccc(O)cc1)c1c(O)cc(O[C@@H]2O[C@H](CO)[C@@H](O)[C@H](O)[C@H]2O)cc1O"
Result: false (0)

Request: Cool, now "O=C(NCc1ccncc1)C12CC3CC(C1)CC(c1ccc(Cl)cc1)(C3)C2"
Result: true (1)

----------
system: MARIMO; experiment: cell viability relative to vehicle control; higher = less cytotoxic; conditions: 10 µM; SRSF2 genotype: SRSF2 wt/wt
Where a name gives a salt, the structure may show the parent alone.
Quantity: cell viability (%)
One number for each entry, in %.

Worked cases, answers included:
Request: If you can, please state the reported cell viability value of CN1CCC[C@@H]1CCO[C@](C)(c1ccccc1)c1ccc(Cl)cc1 [Clemastine Fumarate] .
Result: 77.3

Request: Cool, now "Cc1cnc(C(=O)O)c[n+]1[O-]"
Result: 100

Request: Cool, now "N#Cc1cc2cc(CN3CCC(Nc4ncnc5sc(CC(F)(F)F)cc45)CC3)ccc2[nH]1"
Result: 51.2

Give me cell viability for each of these compounds, listed below.
1. CN(C)CCCNC(=O)c1ccc(-c2cc(O)c3ncccc3c2)cc1
2. CCOc1cc(C(C)(C)C)ccc1C1=N[C@@](C)(c2ccc(Cl)cc2)[C@@](C)(c2ccc(Cl)cc2)N1C(=O)N1CCN(CCCS(C)(=O)=O)CC1
3. Cn1c(-c2ccccc2C(F)(F)F)nnc1C12CCC(c3noc(C4CC(F)(F)C4)n3)(CC1)CC2

Result:
1. 53
2. 107
3. 99.8

Value source: the supplement of paper PMC10981050
